Tested on: HCT-15 colon
Test: NCI tumour cell line growth inhibition, 48 h; in the data active means GI50 below about 0.43 µM; inactive means the rest
Classes used: 1.0 (active), 0.0 (inactive)

INSERT INTO results (compound, class_name) VALUES
  ('COc1cc2ncn(-c3cc(OCc4cccs4)c(C(N)=O)s3)c2cc1OC', 0.0),
  ('CS(=O)(=O)CCNCc1ccc(-c2ccc3ncnc(Nc4ccc(OCc5ccccc5)cc4)c3c2)o1', 0.0),
  ('CCCn1c(=S)sc2c1nc(C)n1c(Nc3ccccc3)nnc21', 0.0),
  ('O=C(Nc1ccncc1)C(=O)c1cn(S(=O)(=O)c2cccc(F)c2)c2ccccc12', 0.0),
  ('COc1cc2cc(Oc3ccc(NC(=O)Nc4ccc(Cl)c(C(F)(F)F)c4)cc3)c(C)nc2cc1OCCN1CCOCC1', 0.0),
  ('CCCCCCCCn1ccc2cc(NC(=O)Cn3cc(CN4CCCC4)nn3)ccc21', 0.0),
  ('CCN(CC)CCCC(C)Nc1c2ccc(Cl)cc2nc2ccc(O)cc12 (stereo unspecified)', 0.0),
  ('COc1ccc(-c2nc(-c3nc4ccc(Cl)cc4[nH]3)c3ccccn23)cc1', 0.0),
  ('CCOC1Oc2ccc(C)cc2C(=O)/C1=C\Nc1ccc(C(N)=O)cc1 (stereo unspecified)', 0.0),
  ('COc1cc[nH]c1/C=C1\C(=O)Nc2ccc(F)c(C#CC3(O)CCNCC3)c21', 1.0),
  ('C[N+]1=C(/C=C/c2ccc(O)c3ncccc23)C(C)(C)c2ccccc21', 0.0),
  ('CC[C@@]1(c2ccccc2)C2=C(CC(C)(C)CC2=O)Nc2[nH]ncc21', 0.0),
  ('OCCCNc1nc(=S)[nH]c2[nH]ncc12', 0.0),
  ('Nc1nc2c(nnn2C2CC(O)C(CO)O2)c(=O)[nH]1 (stereo unspecified)', 0.0),
  ('Cc1cc(-c2cnn3c(NCC4CC(C)(O)C4)cc(Oc4cccnc4)nc23)ccc1C(=O)NC1CC1 (stereo unspecified)', 0.0),
  ('O=C(CC1C(=O)NN(c2ccc(Br)cc2)C1=O)c1cc(O)ccc1O (stereo unspecified)', 0.0);
